These data points were gathered from paper PMC8537501.

# System: CPG-c-myc (DNA, G4) TGGGGAGGGTGGGGAGGGTGGGGAAGGTGGGGA
# procedure-details: G4-CPG affinity chromatography
# measurement-context: 50 mM KCl; 10% DMSO, 10% ethanol; 600 μM ligand
recorded-metric: binding

Sample records with binding:
molecule: CC(C)=CCc1c(C)cc2cc3c(c(O)c2c1O)C(=O)C=C(O)C3(CC=C(C)C)CC=C(CO)CO (stereo not shown)
binding: weak
--
molecule: COC(=O)[C@@H]1[C@H]2C[C@H]3c4[nH]c5ccccc5c4CCN3C[C@@H]2CC[C@@H]1O
binding: weak
--
molecule: CC1=C2C(=O)[C@H]3[C@@H](CC=C4C[C@@H](O)CC[C@@]43C)[C@@H]2CC[C@]12O[C@@H]1C[C@H](C)CN[C@H]1[C@H]2C
binding: yes
--
molecule: CN1CC[C@]23C(=O)C[C@H]4C(=CCO[C@H]5CC(=O)N(c6c(O)cccc62)[C@H]3[C@H]54)C1
binding: yes

Value lookup for binding; key = CC(C)=CCC1=C(O)c2c(cc3cc(C)cc(O)c3c2O)C(CC=C(C)C)(CC=C(C)C)C1=O
weak

Value lookup for binding; key = COc1cc2cc3c(c(O)c2c2c1C=CC(C)(C)O2)C(=O)CC(C)(O)C3 (stereo not shown)
weak

Value lookup for binding; key = CC[C@H]1CN2CCc3cc(OC)c(OC)cc3[C@@H]2C[C@@H]1C[C@H]1NCCc2cc(OC)c(OC)cc21
yes
